Tested on: PXR:RXRa (NR concentration 270 nM, RXRa partner concentration 90 nM)
experimentalDetails: PBM binding z-score (relative to random genomic background probes); higher = stronger binding; sequences stand for … in GC…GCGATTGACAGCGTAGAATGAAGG
Overview of reported PBM binding z-score across a group of sequences:
Just the number, please, no unit after it.

Below, 6 sequences whose answers are already recorded.
> print(dat)
                        sequencechain                                    target   value
1  TCATATAGGAAATACAGGTGAAAGTCGGCATCTA  PXR:RXRa (NR concentration 270 nM, RXRa partner concentration 90 nM)   0.596
2  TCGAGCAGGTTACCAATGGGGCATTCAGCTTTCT  PXR:RXRa (NR concentration 270 nM, RXRa partner concentration 90 nM)  0.0251
3  TCTAGCAGGGCAGAGGGTCACTCAAGAGGTACGG  PXR:RXRa (NR concentration 270 nM, RXRa partner concentration 90 nM)     1.7
4  GGAACGAGGGCCAAGTTGATAGCATCTGTCGACG  PXR:RXRa (NR concentration 270 nM, RXRa partner concentration 90 nM)  -0.242
5  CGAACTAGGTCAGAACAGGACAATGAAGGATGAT  PXR:RXRa (NR concentration 270 nM, RXRa partner concentration 90 nM)    1.23
6  TCTATTAGTTGAAGGGCAACCGACGAGTCCGTTT  PXR:RXRa (NR concentration 270 nM, RXRa partner concentration 90 nM)       1

Entry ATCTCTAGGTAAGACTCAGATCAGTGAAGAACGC : reported PBM binding z-score = ?
-0.381

Entry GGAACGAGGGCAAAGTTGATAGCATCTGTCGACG : reported PBM binding z-score = ?
1.14

Entry CCTTAAGGGTCACTGACAGGTTATAGCATTTGGA : reported PBM binding z-score = ?
4.69

Entry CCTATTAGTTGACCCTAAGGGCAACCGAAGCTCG : reported PBM binding z-score = ?
4.25

Entry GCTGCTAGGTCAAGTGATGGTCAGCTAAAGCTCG : reported PBM binding z-score = ?
1.43

Entry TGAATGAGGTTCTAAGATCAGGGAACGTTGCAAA : reported PBM binding z-score = ?
-0.331

---

Test system: PPARg DBDmut:RXRa IVT, anti-PPARg (DBD mutation: PPARg1 K132A/R137A, NR concentration 270 nM, RXRa partner concentration 90 nM)
experimentalDetails: PBM binding z-score (relative to random genomic background probes); higher = stronger binding; sequences stand for … in GC…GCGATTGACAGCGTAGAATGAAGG
Overview of reported PBM binding z-score across a group of sequences:
Just the number, please, no unit after it.

Below, 3 sequences whose answers are already recorded.
> print(dat)
                        sequencechain   value
1  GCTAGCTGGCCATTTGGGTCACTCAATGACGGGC  -0.756
2  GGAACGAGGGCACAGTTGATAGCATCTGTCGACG   0.579
3  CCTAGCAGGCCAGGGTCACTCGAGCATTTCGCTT  -0.592

Entry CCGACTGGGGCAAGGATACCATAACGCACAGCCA : reported PBM binding z-score = ?
-1.12

Entry TCTTGTAGCTCAGCAGGTTAAGAAAGCTGGCCAA : reported PBM binding z-score = ?
-0.853

Entry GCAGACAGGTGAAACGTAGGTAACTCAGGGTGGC : reported PBM binding z-score = ?
-0.482

Entry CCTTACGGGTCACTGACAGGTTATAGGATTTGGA : reported PBM binding z-score = ?
0.353

Entry TCATATAGGTAAACAGGTGCAAGTCCGTAAGTTA : reported PBM binding z-score = ?
0.88

Entry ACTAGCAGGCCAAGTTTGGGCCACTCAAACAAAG : reported PBM binding z-score = ?
-1.11

Entry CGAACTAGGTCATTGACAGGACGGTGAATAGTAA : reported PBM binding z-score = ?
1.89

Entry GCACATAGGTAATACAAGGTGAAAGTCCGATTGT : reported PBM binding z-score = ?
0.738

Entry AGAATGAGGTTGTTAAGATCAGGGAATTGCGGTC : reported PBM binding z-score = ?
-0.954

---

Tested on: PXR homodimer (NR concentration 270 nM)
experimentalDetails: PBM binding z-score (relative to random genomic background probes); higher = stronger binding; sequences stand for … in GC…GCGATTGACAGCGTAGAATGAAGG
Rule: PBM binding z-score of 0.4 or more gives 1.0; anything lower gives 0.0.

Some solved cases for reference:
> print(dat)
                        sequencechain  labelvalue
1  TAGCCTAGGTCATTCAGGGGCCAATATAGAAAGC         0.0
2  CGTCCAACGTCATAGGAGGTCAGTGAAGACAGAT         1.0
3  ACTATTAGTTGACTTAGGGCAACCCATACGACGC         0.0
4  GCTAGCAGGCGATTTGGGTCACTCAATGACGGGC         0.0
5  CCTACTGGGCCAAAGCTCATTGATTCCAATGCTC         0.0

PBM binding z-score >= 0.4 for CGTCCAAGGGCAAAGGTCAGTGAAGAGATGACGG ?
1.0

---

System: LXRb homodimer (NR concentration 270 nM)
experimentalDetails: PBM binding z-score (relative to random genomic background probes); higher = stronger binding; sequences stand for … in GC…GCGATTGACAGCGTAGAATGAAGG
Rule: PBM binding z-score of -0.5 or more gives rule met; anything lower gives rule not met.

> print(dat)
                        sequencechain  labelvalue
1  AGAATGAGGTTATTATGATCAGGGAATTGCGGTC    rule met

PBM binding z-score >= -0.5 for AGAACGAGGGCACGCTGAGTTGAGAGCAGAGTAG ?
rule not met

PBM binding z-score >= -0.5 for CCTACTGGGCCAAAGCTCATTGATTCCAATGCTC ?
rule not met

PBM binding z-score >= -0.5 for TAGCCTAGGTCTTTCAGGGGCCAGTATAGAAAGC ?
rule met

PBM binding z-score >= -0.5 for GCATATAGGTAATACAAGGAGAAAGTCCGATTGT ?
rule not met

PBM binding z-score >= -0.5 for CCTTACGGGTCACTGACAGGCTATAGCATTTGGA ?
rule met

PBM binding z-score >= -0.5 for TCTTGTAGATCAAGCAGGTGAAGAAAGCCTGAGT ?
rule met

---

Overview of reported PBM binding z-score across a group of sequences:
Tested on: PPARg:RXRa (NR concentration 180 nM, RXRa partner concentration 90 nM)
experimentalDetails: PBM binding z-score (relative to random genomic background probes); higher = stronger binding; sequences stand for … in GC…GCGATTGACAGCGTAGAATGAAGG

Entry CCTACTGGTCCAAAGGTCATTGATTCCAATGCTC : reported PBM binding z-score = ?
9.11

---

Tested on: PPARg:RXRa IVT, anti-PPARg (NR concentration 270 nM, RXRa partner concentration 90 nM)
experimentalDetails: PBM binding z-score (relative to random genomic background probes); higher = stronger binding; sequences stand for … in GC…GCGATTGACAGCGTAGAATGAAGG
Overview of reported PBM binding z-score across a group of sequences:
Just the number, please, no unit after it.

Below, 2 sequences whose answers are already recorded.
> print(dat)
                        sequencechain          readoutname  value
1  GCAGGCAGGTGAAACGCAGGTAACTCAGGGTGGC  PBM binding z-score  0.912
2  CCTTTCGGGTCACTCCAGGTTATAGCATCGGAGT  PBM binding z-score   3.53

Entry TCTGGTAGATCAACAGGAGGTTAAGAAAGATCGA : reported PBM binding z-score = ?
0.0177

Entry ATCCAAAGGTCGACGAGGTGAGTATACACCGTTT : reported PBM binding z-score = ?
2.51

Entry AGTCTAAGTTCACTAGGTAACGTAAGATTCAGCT : reported PBM binding z-score = ?
3.66

Entry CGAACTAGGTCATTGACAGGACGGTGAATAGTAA : reported PBM binding z-score = ?
8.22

Entry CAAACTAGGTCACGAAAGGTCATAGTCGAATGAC : reported PBM binding z-score = ?
9.17

Entry ACTATTAGTTAAGACGAGGGCAACCGATAGGTTG : reported PBM binding z-score = ?
0.422

---

Tested on: RARg homodimer (NR concentration 270 nM)
experimentalDetails: PBM binding z-score (relative to random genomic background probes); higher = stronger binding; sequences stand for … in GC…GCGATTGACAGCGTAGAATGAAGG
readoutName: PBM binding z-score
Just the number, please, no unit after it.

> print(dat)
                        sequencechain                                    target          readoutname  value
1  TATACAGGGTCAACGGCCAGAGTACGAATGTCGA  RARg homodimer (NR concentration 270 nM)  PBM binding z-score   5.47

Entry TCTATTAGTTGATTATGGCAACCGAAACAGCGGA : reported PBM binding z-score = ?
0.199

Entry AGTCAAAGTTCATCTAGGCAACGTAAGATATGCT : reported PBM binding z-score = ?
6.04

Entry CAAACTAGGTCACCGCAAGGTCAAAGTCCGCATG : reported PBM binding z-score = ?
7.32

Entry GCTCGGAGGATAAGGTCAGAGCTTTGTCCGTAGA : reported PBM binding z-score = ?
3.06

Entry AGAATGAGGTTACGATCAGGGAAACAGAATACAT : reported PBM binding z-score = ?
1.83

Entry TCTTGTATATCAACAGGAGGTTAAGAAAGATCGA : reported PBM binding z-score = ?
0.592

Entry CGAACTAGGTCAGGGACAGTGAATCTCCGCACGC : reported PBM binding z-score = ?
3.51

From: the supplement of paper PMC6555819
